# System Name: Jak2 (UniProt O60674)
# Sequence (O60674 whole entry, looked up): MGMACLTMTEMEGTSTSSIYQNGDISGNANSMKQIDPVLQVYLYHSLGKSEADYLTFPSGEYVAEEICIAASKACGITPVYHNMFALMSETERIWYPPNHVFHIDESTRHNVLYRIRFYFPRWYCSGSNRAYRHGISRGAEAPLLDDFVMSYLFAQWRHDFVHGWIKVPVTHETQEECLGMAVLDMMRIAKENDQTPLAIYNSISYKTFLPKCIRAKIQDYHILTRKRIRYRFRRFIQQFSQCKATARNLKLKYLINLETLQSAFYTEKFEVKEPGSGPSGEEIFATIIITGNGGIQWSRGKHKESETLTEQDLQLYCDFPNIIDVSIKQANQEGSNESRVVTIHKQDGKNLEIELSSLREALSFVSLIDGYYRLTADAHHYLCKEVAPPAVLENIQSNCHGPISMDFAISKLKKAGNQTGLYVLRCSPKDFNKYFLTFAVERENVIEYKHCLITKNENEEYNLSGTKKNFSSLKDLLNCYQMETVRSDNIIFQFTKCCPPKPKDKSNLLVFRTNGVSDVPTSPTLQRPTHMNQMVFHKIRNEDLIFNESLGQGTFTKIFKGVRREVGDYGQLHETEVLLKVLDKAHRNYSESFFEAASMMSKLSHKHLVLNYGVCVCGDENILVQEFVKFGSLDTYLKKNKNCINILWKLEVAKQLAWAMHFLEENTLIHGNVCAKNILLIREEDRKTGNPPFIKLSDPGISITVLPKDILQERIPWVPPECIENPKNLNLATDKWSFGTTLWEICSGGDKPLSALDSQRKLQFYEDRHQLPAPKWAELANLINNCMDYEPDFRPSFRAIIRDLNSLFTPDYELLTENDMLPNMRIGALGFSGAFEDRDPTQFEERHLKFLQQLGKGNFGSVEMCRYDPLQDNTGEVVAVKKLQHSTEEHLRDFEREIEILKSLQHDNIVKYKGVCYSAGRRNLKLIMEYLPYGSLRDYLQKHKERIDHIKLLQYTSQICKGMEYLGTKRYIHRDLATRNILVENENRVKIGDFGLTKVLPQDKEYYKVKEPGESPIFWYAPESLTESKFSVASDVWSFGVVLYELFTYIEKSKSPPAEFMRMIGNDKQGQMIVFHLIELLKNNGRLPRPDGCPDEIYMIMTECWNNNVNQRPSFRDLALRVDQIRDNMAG
# Run Description: phosphorylation enrichment, bacterial display (enrichment ratio); higher = better substrate or ligand; peptides without Tyr show the background;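 also: 11-residue human phosphosite peptides and single-mutation variants displayed on the E. coli surface, counted by deep sequencing, each peptide's frequency after selection divided by its frequency in the unselected input library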;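 also: frequency after pTyr selection over input frequency; kinase dosed for 20-30% of maximal phosphorylation in three min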
Quick list: phosphorylation enrichment per entry.
Please state the value as a number alone, without comment.

Completed entries (count: 7):
GFSDPYVKAFL [SYT3_Y470_S474F] : 0.898
KFANSYRMEPL [TCTE3_Y87] : 0.774
MKGEFYRFLAE [YWHAG_Y131_D129E_YF] : 0.907
YVKEPYIQSRF [HIPK4_Y175] : 0.507
ADGLEYSRTEL [MMUT_Y287_G291E] : 0.747
CTTIHYSFMCN [TP53_Y234_N235S_YF] : 0.734
YCVDCYKNFVA [FHL1_Y213] : 0.726

Which phosphorylation enrichment value belongs to VPLLEYFRDIF [CDAN1_Y712_YF] ?
1.41
